- ASSAY_TARGET: MAO-A (amine oxidase [flavin-containing] A) (Homo sapiens)
- Sequence (P21397 whole entry): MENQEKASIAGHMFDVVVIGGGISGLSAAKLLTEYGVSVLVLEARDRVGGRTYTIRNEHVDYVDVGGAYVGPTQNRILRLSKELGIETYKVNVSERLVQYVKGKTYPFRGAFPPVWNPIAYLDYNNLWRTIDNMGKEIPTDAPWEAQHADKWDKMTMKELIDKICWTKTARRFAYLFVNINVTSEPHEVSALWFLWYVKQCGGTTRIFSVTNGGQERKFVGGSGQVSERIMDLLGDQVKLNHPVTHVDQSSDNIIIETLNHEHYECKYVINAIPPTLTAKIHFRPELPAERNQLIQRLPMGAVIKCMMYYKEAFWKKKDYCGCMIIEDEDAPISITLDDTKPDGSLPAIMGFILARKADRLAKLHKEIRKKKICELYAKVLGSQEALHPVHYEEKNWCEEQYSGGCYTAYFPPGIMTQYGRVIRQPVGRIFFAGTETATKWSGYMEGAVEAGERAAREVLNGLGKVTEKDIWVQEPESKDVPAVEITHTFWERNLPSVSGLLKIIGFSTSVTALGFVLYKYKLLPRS
- ASSAY_NAME: Agonist activity in the Eurofins Cerep SafetyScreen44 (BI) against MAO-A_ANTAG by Scintillation counting (Cerep_443)
- Parameters: scale not given: the % may be the effect or the level left
- TEST_PARAMETERS: rat; compound concentration 10 uM; target entry is the homologue from another species; read-out: % Ctrl
READOUT_NAME: activity at 10 µM

| SMILES | VALUE |
| --- | --- |
| CN1CCC(C#N)(NC(=O)[C@@H](NC(=O)N2CCOCC2)C(C)(C)C)CC1 | 105% (not active) |

# context switch: different compound, same activity at 10 µM
Hello, I am looking for reported activity at 10 µM with MAO-A (amine oxidase [flavin-containing] A) (Homo sapiens) for CCC(C)(C)CC[C@H](NC(=O)N1CCOCC1)C(=O)NC1(C#N)CCN(C)CC1 . Could you help?
108% (not active)
